System: THRa homodimer (NR concentration 90 nM)
test: PBM binding z-score (relative to random genomic background probes); higher = stronger binding; sequences stand for … in GC…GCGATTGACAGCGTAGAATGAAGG
measurement_label: PBM binding z-score
Simply state the number, no unit and no words.

Would you please look over these solved cases?
>>> endpoint_result("TAGCCTAGGTCAGATCAGGCCAGTATACGCTATA")
0.219
>>> endpoint_result("GAGACTGGGGCATCAGCAGGTTACCATAACTTAA")
0.361
>>> endpoint_result("CAAGACAGGTGAAAGGTAACTCAGTCTGGTACGC")
0.0377
>>> endpoint_result("TCTAGCAGGCCAGAGGCTCACTCAAGAGGTACGG")
-1.59
>>> endpoint_result("AGAATGAGGTTATACGTAGATCAGGGAAGAAAGT")
0.863
>>> endpoint_result("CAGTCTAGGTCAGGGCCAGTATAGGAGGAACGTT")
1.52
>>> endpoint_result("CGAGCTAGGTCATCCAGGACAGTGAATACATTGA")
1.79
>>> endpoint_result("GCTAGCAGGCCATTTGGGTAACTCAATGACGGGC")
-0.78

// PBM binding z-score lookup, key: TCTCGGAGGACCCGAAGGTCAGAGCTTTCCAGAG
-0.184

// PBM binding z-score lookup, key: GCAGACAGGTGAAACGCAGGTAAATCAGGGTGGC
-0.537

// PBM binding z-score lookup, key: GGAACGAGGGCAAAGCTGATAGCATCTGTCGACG
-0.597

This collection of values is drawn from the supplement of paper PMC6555819.
